Provenance of the data: the supplement of paper PMC9262897

System: E. coli TESEC Mtb DapB
assay.details: growth (OD600 after 10 h); higher = more growth (less inhibition)
experimental.setup: arabinose induction (level): High; compound 0.1 mM; raw OD600 reference: median of DMSO wells […], cell-free background 0.041
Counter-ions that a name gives are not always drawn.
Classify by measured growth: Y if it is equal to or exceeds 0.2, N if it is smaller.

Worked set:
CC[C@H]1OC(=O)[C@H](C)[C@@H](O[C@H]2C[C@@](C)(OC)[C@@H](O)[C@H](C)O2)[C@H](C)[C@@H](O[C@@H]2O[C@H](C)C[C@H](N(C)C)[C@H]2O)[C@](C)(O)C[C@@H](C)CN(C)[C@H](C)[C@@H](O)[C@]1(C)O [Azithromycin]    N
CCOC(=O)OC(C)OC(=O)[C@@H]1N2C(=O)[C@@H](NC(=O)[C@H](N)c3ccccc3)[C@H]2SC1(C)C (stereo partly specified) [Bacampicillin hydrochloride]    N
CCCOc1cc(N)ccc1C(=O)OCCN(CC)CC [Propoxycaine hydrochloride]    Y
CO/N=C(\C(=O)N[C@@H]1C(=O)N2C(C(=O)O)=C(C[N+]3(C)CCCC3)CS[C@H]12)c1csc(N)n1 [Cefepime hydrochloride]    N

Query: Hello, I need to know if COc1ccc(-c2cc(=O)c3c(O)cc(O[C@@H]4O[C@H](CO[C@@H]5O[C@@H](C)[C@H](O)[C@@H](O)[C@H]5O)[C@@H](O)[C@H](O)[C@H]4O)cc3o2)cc1O [Diosmin] has measured growth not below 0.2. Thanks!
Result: Y

====

Property: growth; scope: individual compounds
Test system: E. coli TESEC Mtb Alr
assay.details: growth (OD600 after 10 h); higher = more growth (less inhibition)
experimental.setup: arabinose 10000000 nM; compound 0.1 mM; raw OD600 reference: median of DMSO wells […], cell-free background 0.052
Counter-ions that a name gives are not always drawn.
Just the number.

Below, 3 compounds whose answers are already recorded.
CCC[C@@H]1C[C@@H](C(=O)N[C@@H]([C@H]2O[C@H](SC)[C@H](O)[C@@H](O)[C@H]2O)[C@H](C)Cl)N(C)C1 [Clindamycin hydrochloride]    0.0594
CCC(C)n1ncn(-c2ccc(N3CCN(c4ccc(OCC5COC(Cn6cncn6)(c6ccc(Cl)cc6Cl)O5)cc4)CC3)cc2)c1=O (centres undefined)    0.368
COc1cc(C)nc(-n2nc(C)cc2OC)n1 [Epirizole]    0.27

Query: Can you look up the measured growth of OC(CCN1CCCCC1)(c1ccccc1)c1ccccc1 [Pridinol methanesulfonate salt] for me?
Result: 0.352

====

System: E. coli TESEC Mtb Alr
assay.details: growth (OD600 after 10 h); higher = more growth (less inhibition)
experimental.setup: arabinose 10000000 nM; compound 0.1 mM; raw OD600 reference: median of DMSO wells […], cell-free background 0.052
Counter-ions that a name gives are not always drawn.
Consider the following compounds and their measured growth readings.
Please give only the number in your answer, with no unit.

Study these solved cases before continuing.
CCc1oc2ccccc2c1C(=O)c1cc(Br)c(O)c(Br)c1 [Benzbromarone]    0.0513
CCN(CCO)CCCC(C)Nc1ccnc2cc(Cl)ccc12 (centres undefined) [Hydroxychloroquine sulfate]    0.354
C[N+]1(CCCCC[N+]2(C)CCCC2)CCCC1 [Pentolinium bitartrate]    0.361
Cc1cc(C(=O)NNCc2ccccc2)no1 [Isocarboxazid]    0.362

Query: // lookup growth for CCN1CCC[C@H]1CNC(=O)c1c(OC)ccc(Br)c1OC [Remoxipride Hydrochloride]
Result: 0.338

Query: I have this compound here, CC(=O)Nc1nnc(S(N)(=O)=O)s1 [Acetazolamide] , and I need its recorded growth.
Result: 0.317

Query: Quick one: growth for CNCCCC1c2ccccc2C=Cc2ccccc21 [Protriptyline hydrochloride] ?
Result: 0.313

Query: If you can, please state the reported growth value of CNC1(C)C2CCC(C2)C1(C)C (centres undefined) [Mecamylamine hydrochloride] .
Result: 0.312

Query: Any idea what growth was measured for NC(CO)C(=O)NNCc1ccc(O)c(O)c1O (centres undefined) [Benserazide hydrochloride] ?
Result: 0.148

====

Tested on: E. coli TESEC Alr+ wild-type control
assay.details: growth (OD600 after 10 h); higher = more growth (less inhibition)
experimental.setup: compound 0.1 mM; raw OD600 reference: median of DMSO wells 0.49, cell-free background 0.052
Counter-ions that a name gives are not always drawn.
// label = 1 (yes) if growth is not less than 0.5, otherwise 0 (no)

CN(C)CCc1c[nH]c2ccc(Cn3cncn3)cc12 [Rizatriptan benzoate]    1 (yes)
Oc1c(Cl)cc(Cl)c(Cl)c1Cc1c(O)c(Cl)cc(Cl)c1Cl [Hexachlorophene]    0 (no)
CC=C(C)C(=O)OC1C(OC(C)=O)C2(CO)C(O)CC3(C)C(=CCC4C5(C)CCC(OC6OC(C(=O)O)C(OC7OC(CO)C(O)C(O)C7O)C(O)C6OC6OC(CO)C(O)C(O)C6O)C(C)(CO)C5CCC43C)C2CC1(C)C (stereo not drawn) [Beta-Escin]    0 (no)
CC[C@H](C)[C@H]1O[C@]2(CC[C@@H]1C)C[C@@H]1C[C@@H](CC=C(C)C(O[C@H]3C[C@H](OC)[C@@H](O[C@H]4C[C@H](OC)[C@@H](O)[C@H](C)O4)[C@H](C)O3)[C@@H](C)C=CC=C3CO[C@@H]4[C@H](O)C(C)=C[C@@H](C(=O)O1)[C@]34O)O2 (some centres not stated) [Ivermectin]    1 (yes)
Nc1ccc(S(=O)(=O)Nc2cnc3ccccc3n2)cc1 [Sulfaquinoxaline sodium salt]    0 (no)
CC(CN(C)C)CN1c2ccccc2Sc2ccccc21 (configuration not stated) [Trimeprazine tartrate]    1 (yes)
Cc1ncc(CO)c(CO)c1O [Pyridoxine hydrochloride]    1 (yes)
C(=C\c1ccccc1)/CN1CCN(C(c2ccccc2)c2ccccc2)CC1 [Cinnarizine]    1 (yes)

Shift focus to the following entry.
Query: # check: growth of Cn1c(NCCN(CCO)CCCc2ccc([N+](=O)[O-])cc2)cc(=O)n(C)c1=O [Nifekalant] is greater than or equal to 0.5
Result: 1 (yes)

====

Each entry below carries its reported growth.
Tested on: E. coli TESEC Mtb DapB
assay.details: growth (OD600 after 10 h); higher = more growth (less inhibition)
experimental.setup: arabinose induction (level): High; compound 0.1 mM; raw OD600 reference: median of DMSO wells […], cell-free background 0.041
Where a name gives a salt, the structure may show the parent alone.
Write no unit; give the number alone.

Cc1noc(NS(=O)(=O)c2ccc(N)cc2)c1C    0.19
Nc1c(Br)cc(Br)cc1CN[C@H]1CC[C@H](O)CC1 [Ambroxol hydrochloride]    0.204

// below: growth requested for another compound
Query: growth for CNCCCN1c2ccccc2CCc2ccccc21 [Desipramine hydrochloride] ?
Result: 0.171

====

System: E. coli TESEC Alr+ wild-type control
assay.details: growth (OD600 after 10 h); higher = more growth (less inhibition)
experimental.setup: compound 0.1 mM; raw OD600 reference: median of DMSO wells 0.241, cell-free background 0.041
Structures can show the parent of a compound that is named as a salt.
quantity.kind: growth
Reply briefly: the number, and no unit.

// solved cases for growth follow
CC(=O)Oc1cccc2c1C(=O)c1c(OC(C)=O)cc(C(=O)O)cc1C2=O    0.122
CC(C)(C)NC(=O)[C@@H]1C[C@@H]2CCCC[C@@H]2CN1C[C@@H](O)[C@H](Cc1ccccc1)NC(=O)[C@H](CC(N)=O)NC(=O)c1ccc2ccccc2n1 [Saquinavir mesylate]    0.072

Query: Any idea what growth was measured for O=C1c2c(O)cccc2Cc2cccc(O)c21 ?
Result: 0.161

Query: Any idea what growth was measured for CC(=O)N[C@@H](CS)C(=O)O ?
Result: 0.242

Query: Tell me the measured growth of COC1=CC(=O)C[C@@H](C)[C@]12Oc1c(Cl)c(OC)cc(OC)c1C2=O , please.
Result: 0.223

Query: Bench note: what growth did Nc1cc(-c2ccncc2)c[nH]c1=O show?
Result: 0.237

Query: Any idea what its growth is? The compound is CNCCCC1c2ccccc2C=Cc2ccccc21 [Protriptyline hydrochloride]
Result: 0.177

Query: Requested read-out: growth. Entry: OCCN1CCN(CCCN2c3ccccc3Sc3ccc(C(F)(F)F)cc32)CC1 [Fluphenazine dihydrochloride]
Result: 0.0421

Query: Recorded growth for O=C(CCCCCCC(=O)Nc1ccccc1)NO , please?
Result: 0.253

====

System: E. coli TESEC Mtb Asd
assay.details: growth (OD600 after 10 h); higher = more growth (less inhibition)
experimental.setup: arabinose induction (level): High; compound 0.1 mM; raw OD600 reference: median of DMSO wells 0.331, cell-free background 0.041
Structures can show the parent of a compound that is named as a salt.
quantity.kind: growth

CN1CCCN=C1/C=C/c1cccs1 [Pyrantel tartrate]    0.347
c1ccc2[nH]c(-c3cscn3)nc2c1 [Tiabendazole]    0.278
CC(=O)OCC(=O)NCCCOc1cccc(CN2CCCCC2)c1 [Roxatidine Acetate HCl]    0.29
C=C1/C(=C\C=C2/CCC[C@]3(C)[C@@H]([C@H](C)CCCC(C)C)CC[C@@H]23)C[C@@H](O)C[C@@H]1O [Alfacalcidol]    0.219

Query: Name the reported growth value associated with the molecule CC(C)NCC(O)c1ccc2ccccc2c1 (centres undefined) [Pronethalol hydrochloride]
Result: 0.247

Query: Given the entry Cc1onc(-c2ccccc2Cl)c1C(=O)N[C@@H]1C(=O)N2[C@@H]1SC(C)(C)[C@@H]2C(=O)O [Cloxacillin sodium salt] , report its measured growth.
Result: 0.32

Query: I would be grateful if you could share the reported growth for CN(C)CCCN1c2ccccc2CCc2ccc(Cl)cc21 [Clomipramine hydrochloride] .
Result: 0.0467

Query: For the molecule shown here, CSc1ccc2c(c1)N(CCC1CCCCN1C)c1ccccc1S2 (centres undefined) [Thioridazine hydrochloride] , give the reported growth.
Result: 0.0505

Query: Give the measured growth of CC(C(=O)O)c1cccc(C(=O)c2ccccc2)c1 (centres undefined) [Ketoprofen] .
Result: 0.247
